test system: Caco-2 cells; assay: Membrane permeability test using Caco-2 cells with preincubation; assay type: in vitro ADME; conditions: Caco-2 cells, preincubation 20 to 24 hours; apical FaSSIF/HBSS 1% DMSO pH 6.0, basal HBSS 4% BSA pH 7.4; basal sample at 180 minutes
Starred links: 1 amine or outer side, 2 acyl side, 3 side chain; linkers in the order of their positions; H or OH if unused. Positions of bridges follow the written chain, without caps; N, C: chain ends. Non-standard residues stand in square brackets, D forms with d. Residues, ends and D or L forms follow the SMILES beside them. *: point of attachment. NMedβ3hAla = C[C@H](CC(=O)[*:2])N(C)[*:1]; NMeF = CN[C@@H](Cc1ccccc1)C(=O)O; NMeI = CC[C@H](C)[C@H](NC)C(=O)O; NMeT = CN[C@H](C(=O)O)[C@@H](C)O; hPhe = N[C@@H](CCc1ccccc1)C(=O)O; NMeD = CN[C@@H](CC(=O)O)C(=O)O; NMeL = CN[C@@H](CC(C)C)C(=O)O; NMeV = CN[C@H](C(=O)O)C(C)C; d(β3hA) = C[C@@H](N)CC(=O)O; NMeAbu = CC[C@H](NC)C(=O)O; NMeA = CN[C@@H](C)C(=O)O; Piperidide = C1CCN(*)CC1; Abu = CC[C@H](N)C(=O)O; Sar = CNCC(=O)O; tBu = CC(C)(C)*
readoutName: Caco2 Papp (10^-6 cm/sec)

Below are worked cases with known answers.
* CC[C@H](C)[C@H]1C(=O)N[C@@H](CC(C)C)C(=O)N(C)[C@@H](CC(C)C)C(=O)N2CCC[C@H]2C(=O)N(C)[C@@H](C(C)C)C(=O)N[C@H](C(=O)N2CCCCC2)CC(=O)N[C@@H](C)C(=O)N(C)[C@@H](CC(C)C)C(=O)N[C@@H](C(C)C)C(=O)N(C)[C@@H](Cc2ccccc2)C(=O)N(C)[C@@H](CC(C)C)C(=O)N[C@@H](C)C(=O)N(C)[C@@H](Cc2ccccc2)C(=O)N[C@@H]([C@@H](C)O)C(=O)N1C [pd036] (A[NMeL]V[NMeF][NMeL]A[NMeF]T[NMeI]L[NMeL]P[NMeV]D-Piperidide; lactam N-14) | 0.28 10^-6 cm/sec
* CC[C@H](C)[C@@H]1NC(=O)[C@H](CC(C)C)N(C)C(=O)[C@H](CC(C)C)NC(=O)[C@H](C)N(C)C(=O)C[C@@H](C(=O)N2CCCCC2)NC(=O)[C@H](CC(C)C)NC(=O)[C@@H]2CCCN2C(=O)[C@H](CC(C)C)N(C)C(=O)[C@H]([C@@H](C)O)NC(=O)[C@H]([C@@H](C)CC)N(C)C(=O)[C@H](Cc2ccccc2)N(C)C(=O)[C@H](C)NC(=O)[C@H](Cc2ccccc2)N(C)C(=O)[C@H](CC(C)C)NC1=O [pd027] ([NMeA]L[NMeL]IL[NMeF]A[NMeF][NMeI]T[NMeL]PLD-Piperidide; lactam N-14) | 0.02 10^-6 cm/sec
* CC[C@H](C)[C@H]1C(=O)N[C@@H]([C@@H](C)O)C(=O)N(C)CC(=O)N(C)[C@@H](CC(C)C)C(=O)N(C)[C@@H](Cc2ccccc2)C(=O)N[C@H](C(=O)N2CCCCC2)CC(=O)N(C)[C@@H](C)C(=O)N[C@@H](CC(C)C)C(=O)N(C)[C@@H](Cc2ccccc2)C(=O)N(C)[C@@H](C)C(=O)N(C)[C@@H](CC(C)C)C(=O)N[C@@H](COC(C)(C)C)C(=O)N(C)[C@@H](C)C(=O)N[C@@H](CC(C)C)C(=O)N1C [pd044] ([NMeA]L[NMeF][NMeA][NMeL]S(tBu)[NMeA]L[NMeI]T[Sar][NMeL][NMeF]D-Piperidide; lactam N-14) | 0.83 10^-6 cm/sec
* CC[C@H](C)[C@@H]1NC(=O)[C@H](CC(C)C)N(C)C(=O)C[C@@H](C)NC(=O)[C@H](C(C)C)N(C)C(=O)[C@H](COC(C)(C)C)NC(=O)[C@H](CC)N(C)C(=O)[C@H](Cc2ccccc2)N(C)C(=O)[C@H](CC(C)C)NC(=O)[C@@H]2CCCN2C(=O)[C@H]([C@@H](C)O)N(C)C(=O)[C@H](CC(C)C)N(C)C(=O)[C@H](CC)N(C)C(=O)[C@H](C(C)C)NC(=O)[C@H](CC(C)C)N(C)C1=O [pd057] (cyclo(I[NMeL]V[NMeAbu][NMeL][NMeT]PL[NMeF][NMeAbu]S(tBu)[NMeV][d(β3hA)][NMeL])) | 1.16 10^-6 cm/sec
* CC[C@@H]1NC(=O)[C@H]([C@@H](C)O)NC(=O)[C@H](Cc2ccccc2)N(C)C(=O)[C@H](CC(C)C)N(C)C(=O)[C@H](C(C)C)NC(=O)[C@H]([C@@H](C)CC)N(C)C(=O)[C@H]([C@@H](C)CC)NC(=O)[C@H](CC(C)C)N(C)C(=O)[C@H](C)N(C)C(=O)[C@H](C)NC(=O)C[C@@H](C)N(C)C(=O)[C@H](CC(C)C)N(C)C(=O)[C@H](C)N(C)C(=O)CN(C)C1=O [pd069] (cyclo(A[NMeA][NMeL]I[NMeI]V[NMeL][NMeF]T[Abu][Sar][NMeA][NMeL][NMedβ3hAla])) | <0.08 10^-6 cm/sec

For CC[C@@H]1NC(=O)[C@H](C(C)C)N(C)C(=O)[C@H](C)N(C)C(=O)[C@H](Cc2ccccc2)N(C)C(=O)[C@H](CC(C)C)NC(=O)[C@H](Cc2ccccc2)N(C)C(=O)[C@H](C(C)C)NC(=O)[C@H](CC(C)C)N(C)C(=O)[C@H]([C@@H](C)CC)NC(=O)[C@H](CC(C)C)N(C)C(=O)CN(C)C(=O)C[C@@H](C(=O)N2CCCCC2)N(C)C(=O)CNC(=O)[C@H](C)N(C)C1=O [pd080] ([Sar][NMeL]I[NMeL]V[NMeF]L[NMeF][NMeA][NMeV][Abu][NMeA]G[NMeD]-Piperidide; lactam N-14) on Caco-2 cells, measured Caco2 Papp (10^-6 cm/sec) was 0.25 10^-6 cm/sec

For CC[C@H](C)[C@@H]1NC(=O)CN(C)C(=O)C[C@@H](C(=O)N2CCCCC2)N(C)C(=O)[C@H](Cc2ccccc2)N(C)C(=O)[C@H](CC(C)C)N(C)C(=O)[C@H]([C@@H](C)O)NC(=O)[C@H](CC(C)C)N(C)C(=O)[C@H](CC(C)C)NC(=O)[C@H](C(C)C)N(C)C(=O)[C@H](C)N(C)C(=O)[C@H](CC(C)C)N(C)C(=O)[C@H](CCc2ccccc2)NC(=O)[C@H](CC(C)C)N(C)C1=O [pd165] ([Sar]I[NMeL][hPhe][NMeL][NMeA][NMeV]L[NMeL]T[NMeL][NMeF][NMeD]-Piperidide; lactam N-13) on Caco-2 cells, measured Caco2 Papp (10^-6 cm/sec) was 0.10 10^-6 cm/sec

For CC[C@@H]1NC(=O)[C@H](Cc2ccccc2)N(C)C(=O)[C@H]([C@@H](C)O)NC(=O)[C@H](CC(C)C)N(C)C(=O)[C@H](C)N(C)C(=O)C[C@@H](C(=O)N2CCCCC2)N(C)C(=O)[C@H](CC(C)C)N(C)C(=O)[C@H]([C@@H](C)CC)N(C)C(=O)CN(C)C(=O)[C@H](CC(C)C)NC(=O)[C@H](Cc2ccccc2)N(C)C(=O)[C@H](CC(C)C)N(C)C(=O)[C@H]([C@@H](C)CC)N(C)C1=O [pd167] ([NMeA][NMeL]T[NMeF][Abu][NMeI][NMeL][NMeF]L[Sar][NMeI][NMeL][NMeD]-Piperidide; lactam N-13) on Caco-2 cells, measured Caco2 Papp (10^-6 cm/sec) was 0.23 10^-6 cm/sec
